- system name: T1, TNFR1 (Homo sapiens, UniProt P19438)
- T1 chain: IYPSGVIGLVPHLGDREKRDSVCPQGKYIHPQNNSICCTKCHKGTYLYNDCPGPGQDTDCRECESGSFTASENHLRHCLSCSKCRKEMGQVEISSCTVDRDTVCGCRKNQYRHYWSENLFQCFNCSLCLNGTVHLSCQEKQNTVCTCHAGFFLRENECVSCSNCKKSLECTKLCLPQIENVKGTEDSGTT
- assay comment: yeast display SC50
metric: apparent Kd (screen) (nM)

Solved entries (count: 5):
| binder | value unit | apparent Kd (screen) |
| --- | --- | --- |
| V85D (designed binder) MTLQELLREEALRRAEAEAFRYALELLAEKFPEQKEYLLDLAEEIESQIRSLSGVDVEDVRKFLDKEWAWVKELLAEHPAELAEDEAARAARLAELRAEVEAKVAA | nM | 6.43 |
| E16D (designed binder) MTLQELLREEALRRADAEAFRYALELLAEKFPEQKEYLLDLAEEIESQIRSLSGVDVEDVRKFLDKEWAWVKELLAEHPAELAEVEAARAARLAELRAEVEAKVAA | nM | 1.05 |
| A23Q (designed binder) MTLQELLREEALRRAEAEAFRYQLELLAEKFPEQKEYLLDLAEEIESQIRSLSGVDVEDVRKFLDKEWAWVKELLAEHPAELAEVEAARAARLAELRAEVEAKVAA | nM | 0.539 |
| A19K (designed binder) MTLQELLREEALRRAEAEKFRYALELLAEKFPEQKEYLLDLAEEIESQIRSLSGVDVEDVRKFLDKEWAWVKELLAEHPAELAEVEAARAARLAELRAEVEAKVAA | nM | 10.4 |
| V60P (designed binder) MTLQELLREEALRRAEAEAFRYALELLAEKFPEQKEYLLDLAEEIESQIRSLSGVDVEDPRKFLDKEWAWVKELLAEHPAELAEVEAARAARLAELRAEVEAKVAA | nM | 12.5 |

[A] L38Q (designed binder) MTLQELLREEALRRAEAEAFRYALELLAEKFPEQKEYQLDLAEEIESQIRSLSGVDVEDVRKFLDKEWAWVKELLAEHPAELAEVEAARAARLAELRAEVEAKVAA
[B] E73I (designed binder) MTLQELLREEALRRAEAEAFRYALELLAEKFPEQKEYLLDLAEEIESQIRSLSGVDVEDVRKFLDKEWAWVKILLAEHPAELAEVEAARAARLAELRAEVEAKVAA
Given the listed items, does A or B have the lesser reported apparent Kd (screen)? Choose, then provide that item's label. B
(B: 0.718 nM, A: 16.7 nM)
